- testedTarget: human Cereblon WT GST-tagged protein (Homo sapiens, UniProt Q96SW2)
- Construct: purchased CISBIO 64BDCRBNPEH
- Sequence (Q96SW2 whole entry): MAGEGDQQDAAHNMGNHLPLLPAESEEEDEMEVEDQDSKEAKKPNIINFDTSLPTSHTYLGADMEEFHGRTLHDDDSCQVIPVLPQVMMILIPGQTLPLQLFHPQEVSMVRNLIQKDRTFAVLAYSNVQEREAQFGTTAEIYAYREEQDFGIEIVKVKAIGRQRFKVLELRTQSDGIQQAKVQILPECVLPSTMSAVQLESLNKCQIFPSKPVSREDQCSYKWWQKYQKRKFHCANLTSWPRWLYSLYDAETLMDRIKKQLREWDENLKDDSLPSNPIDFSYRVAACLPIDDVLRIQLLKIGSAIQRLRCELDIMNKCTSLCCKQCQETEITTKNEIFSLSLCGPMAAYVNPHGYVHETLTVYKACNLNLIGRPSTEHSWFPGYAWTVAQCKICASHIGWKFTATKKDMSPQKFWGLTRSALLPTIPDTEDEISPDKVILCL
- testMethodNotes: CRBN-binding affinity by HTRF (CEREBLON BINDING kit)
- experimentalContext: HTRF inhibitory activity, CEREBLON BINDING kit; read-out: HTRF IC50
- Description: The CEREBLON BINDING kits (specification: 10,000 tests; product number: Catalog # 64BDCRBNPEH; CISBIO company) was used to determine the CRBN binding ability of the compounds to be tested through a HTRF method (homogeneous time-resolved fluorescence). The specific methods are as follows: • 1. […] Specifically, diluent #9 (1X) solution was used as the diluent, and multiple concentration gradients were set. […] Then, 2.5 µL of human Cereblon WT GST-tagged protein solution was added to each well. […]
pIC50: −log10 of the molar value.
reportedProperty: pIC50

{"columns": ["compound", "pIC50"],
 "data": [
  ["CC1(C)[C@@H]2CC[C@]1(CS(=O)(=O)NCc1ccc3c(c1)CN(C1CCC(=O)NC1=O)C3=O)C(=O)C2 (some centres unmarked) [GT-06927]", "6.00 to 6.30"],
  ["O=C1CCC(N2Cc3cc(CN4CCN(c5ncnc6sc7c(c56)CCCC7)CC4)ccc3C2=O)C(=O)N1 (centres unmarked) [GT-05209]", "> 6.30"],
  ["Cc1ccsc1C1=CCN(Cc2cc(F)c3c(c2)CN(C2CCC(=O)NC2=O)C3=O)CC1 (centres unmarked) [GT-04730]", "6.00 to 6.30"]
]}

Give pIC50 for Cc1ccc(C2=CCN(Cc3ccc4c(c3)C(=O)N(C3CCC(=O)NC3=O)C4=O)CC2)s1 (centres unmarked) [GT-06220] tested on human Cereblon WT GST-tagged protein (Homo sapiens, UniProt Q96SW2).
5.72 to 5.82

Send back human Cereblon WT GST-tagged protein (Homo sapiens, UniProt Q96SW2) pIC50 of Cc1nc(C2=CCN(Cc3ccc4c(c3)CN(C3CCC(=O)NC3=O)C4=O)CC2)c2c3c(sc2n1)CCCC3 (centres unmarked) [GT-04863] only.
> 6.30

Give pIC50 for O=C1CCC(N2Cc3cc(CN4CCN(c5ncc6ccsc6n5)CC4)ccc3C2=O)C(=O)N1 (centres unmarked) [GT-04725] tested on human Cereblon WT GST-tagged protein (Homo sapiens, UniProt Q96SW2).
> 6.30

Report value: pIC50, system: human Cereblon WT GST-tagged protein (Homo sapiens, UniProt Q96SW2), compound: O=C1CCC(N2Cc3cc(CN4CCN(c5c(Cl)ccnc5Cl)CC4)ccc3C2=O)C(=O)N1 (centres unmarked) [GT-04896]
6.00 to 6.30

Consider the compound O=C1CCC(N2Cc3cc(CN4CCC(c5cccc(C(F)(F)F)c5)CC4)ccc3C2=O)C(=O)N1 (centres unmarked) [GT-04472] tested on human Cereblon WT GST-tagged protein (Homo sapiens, UniProt Q96SW2); state its pIC50.
6.00 to 6.30

----------
- Tested on: NCI-H1975
- testMethodNotes: Tumor cell proliferation inhibition (CellTiter-Meiluncell Luminescent Cell Viability Assay), NCI-H1975
- experimentalContext: Homo sapiens, NCI-H1975, 96 h, read-out: inhibitory activity (IC50, nM) against tumor cells proliferation, H1975
reportedProperty: IC50

// known answers, use as guide
{"columns": ["compound", "recordedValue"],
 "data": [
  ["Cc1ccsc1C1=CCN(Cc2ccc3c(c2F)CN(C2CCC(=O)NC2=O)C3=O)CC1 (centres unmarked)", "10 to 50 nM"],
  ["O=C1CCC(N2Cc3cc(CN4CCN(c5ccc(Cl)cn5)CC4)ccc3C2=O)C(=O)N1 (centres unmarked)", "50 to 100 nM"]
]}

Give IC50 for this entry on NCI-H1975: O=C1CCC(N2Cc3cc(CN4CCC(c5nccc(Cl)c5Cl)CC4)ccc3C2=O)C(=O)N1 (centres unmarked)
100 to 500 nM

Provide IC50, tested on NCI-H1975, for O=C1CCC(N2Cc3cc(CN4CCC(c5c[nH]c6ncccc56)CC4)ccc3C2=O)C(=O)N1 (centres unmarked) .
100 to 500 nM

Recall the reported IC50 of O=C1CCC(N2Cc3cc(CN4CCN(c5ccccc5Cl)CC4)ccc3C2=O)C(=O)N1 (centres unmarked) on NCI-H1975 and write it down.
100 to 500 nM
